# measurement.target: recombinant human AMPK complex 7 (containing α2β1γ1) (Homo sapiens (Human), UniProt P54646+Q9Y478)
# Sequence (P54646 whole entry): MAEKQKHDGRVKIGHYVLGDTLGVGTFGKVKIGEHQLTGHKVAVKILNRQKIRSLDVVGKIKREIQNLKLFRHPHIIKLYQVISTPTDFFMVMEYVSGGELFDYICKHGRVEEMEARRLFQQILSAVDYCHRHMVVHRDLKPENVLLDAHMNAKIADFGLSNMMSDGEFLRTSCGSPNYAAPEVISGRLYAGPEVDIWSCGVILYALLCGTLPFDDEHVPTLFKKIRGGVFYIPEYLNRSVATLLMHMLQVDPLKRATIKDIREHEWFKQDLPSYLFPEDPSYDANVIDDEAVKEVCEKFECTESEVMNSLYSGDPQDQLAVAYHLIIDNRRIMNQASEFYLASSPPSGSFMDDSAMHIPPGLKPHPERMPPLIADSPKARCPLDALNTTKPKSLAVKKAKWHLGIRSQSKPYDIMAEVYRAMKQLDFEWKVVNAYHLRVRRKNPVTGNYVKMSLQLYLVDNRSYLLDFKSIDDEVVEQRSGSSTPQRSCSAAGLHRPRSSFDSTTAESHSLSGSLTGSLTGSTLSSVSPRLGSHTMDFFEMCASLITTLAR
# Sequence (Q9Y478 whole entry): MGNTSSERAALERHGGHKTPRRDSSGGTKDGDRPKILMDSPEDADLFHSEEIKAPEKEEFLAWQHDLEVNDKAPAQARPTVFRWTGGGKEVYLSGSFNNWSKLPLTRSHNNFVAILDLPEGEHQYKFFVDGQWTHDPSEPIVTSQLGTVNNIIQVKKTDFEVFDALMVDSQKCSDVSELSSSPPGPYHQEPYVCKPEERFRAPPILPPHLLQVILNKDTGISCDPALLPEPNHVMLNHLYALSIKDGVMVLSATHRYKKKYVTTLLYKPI
# Sequence (P54619 whole entry partner): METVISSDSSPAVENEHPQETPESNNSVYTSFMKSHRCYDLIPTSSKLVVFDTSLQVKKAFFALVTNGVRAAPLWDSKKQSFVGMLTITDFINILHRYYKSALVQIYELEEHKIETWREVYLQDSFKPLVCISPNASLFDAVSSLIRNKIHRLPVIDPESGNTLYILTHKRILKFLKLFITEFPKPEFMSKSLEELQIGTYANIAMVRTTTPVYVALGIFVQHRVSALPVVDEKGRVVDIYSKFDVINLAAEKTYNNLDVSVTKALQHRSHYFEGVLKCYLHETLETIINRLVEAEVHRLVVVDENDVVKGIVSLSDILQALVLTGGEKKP
# measurement.notes: in vitro AMPK activation assay (AMPKSAMSF), complex 7
# Format: biochemical
# condition.summary: 10-point titration, expressed as % maximum AMP activation
observable: Emax (%)
# unit: % | format: bare number

Example compounds with recorded Emax:
- compound: "Cc1cc(-c2ccc(-c3ccc(-c4nc5nc(O[C@@H]6CO[C@H]7[C@@H]6OC[C@H]7O)[nH]c5cc4Cl)cc3)cc2)c(=O)[nH]n1"
  observable: "Emax"
  val: 289
- compound: "O=C(O)CCCc1ccc(-c2ccc(-c3nc4nc(O[C@@H]5CO[C@H]6[C@@H]5OC[C@H]6O)[nH]c4cc3Cl)cc2)cc1"
  observable: "Emax"
  val: 314
- compound: "O=c1[nH]c(-c2ccc(-c3ccc(-c4nc5nc(O[C@@H]6CO[C@H]7[C@@H]6OC[C@H]7O)[nH]c5cc4Cl)cc3)cc2)no1"
  observable: "Emax"
  val: 333
- compound: "Cc1nnc(-c2ccc(-c3ccc(-c4nc5nc(O[C@@H]6CO[C@H]7[C@@H]6OC[C@H]7O)[nH]c5cc4Cl)cc3)cc2)o1"
  observable: "Emax"
  val: 285
- compound: "CC1(c2ccc(-c3ccc(-c4nc5nc(O[C@@H]6CO[C@H]7[C@@H]6OC[C@H]7O)[nH]c5cc4Cl)cc3)cc2)COC1"
  observable: "Emax"
  val: 348

Short answer for O=c1[nH]ccn1-c1ccc(-c2ccc(-c3nc4nc(O[C@@H]5CO[C@H]6[C@@H]5OC[C@H]6O)[nH]c4cc3Cl)cc2)cc1 : Emax was 357

Short answer for O=C1CC(c2ccc(-c3ccc(-c4nc5nc(O[C@@H]6CO[C@H]7[C@@H]6OC[C@H]7O)[nH]c5cc4Cl)cc3)cc2)CN1 (stereo partly shown) : Emax was 322

Short answer for CN(C)CCOc1ccc(-c2ccc(-c3nc4nc(O[C@@H]5CO[C@H]6[C@@H]5OC[C@H]6O)[nH]c4cc3Cl)cc2)cc1 : Emax was 323

Short answer for O=C(O)C1CCC(c2ccc(-c3ccc(-c4nc5nc(O[C@@H]6CO[C@H]7[C@@H]6OC[C@H]7O)[nH]c5cc4Cl)cc3)cc2)=N1 (stereo partly shown) : Emax was 350

Short answer for CC(C)(O)CN1Cc2cn(-c3ccc(-c4nc5nc(O[C@@H]6CO[C@H]7[C@@H]6OC[C@H]7O)[nH]c5cc4Cl)cc3)nc2C1 [Example 14, 2,2,2-trifluoroacetate] : Emax was 276

Short answer for O[C@@H]1CO[C@H]2[C@@H]1OC[C@H]2Oc1nc2nc(-c3ccc(-c4ccc(C5CNCCO5)cc4)cc3)c(Cl)cc2[nH]1 (stereo partly shown) : Emax was 359

Short answer for O=c1ncn(-c2ccc(-c3ccc(-c4nc5nc(O[C@@H]6CO[C@H]7[C@@H]6OC[C@H]7O)[nH]c5cc4Cl)cc3)cc2)[nH]1 : Emax was 305

Short answer for Cn1c(-c2ccc(-c3ccc(-c4nc5nc(O[C@@H]6CO[C@H]7[C@@H]6OC[C@H]7O)[nH]c5cc4Cl)cc3)cc2)cnc1N : Emax was 281
